Entry source: ChEMBL document CHEMBL1140580

- EXPERIMENTAL_TARGET: Melanocortin receptor 5 (Homo sapiens)
- Sequence (P33032 whole entry, looked up): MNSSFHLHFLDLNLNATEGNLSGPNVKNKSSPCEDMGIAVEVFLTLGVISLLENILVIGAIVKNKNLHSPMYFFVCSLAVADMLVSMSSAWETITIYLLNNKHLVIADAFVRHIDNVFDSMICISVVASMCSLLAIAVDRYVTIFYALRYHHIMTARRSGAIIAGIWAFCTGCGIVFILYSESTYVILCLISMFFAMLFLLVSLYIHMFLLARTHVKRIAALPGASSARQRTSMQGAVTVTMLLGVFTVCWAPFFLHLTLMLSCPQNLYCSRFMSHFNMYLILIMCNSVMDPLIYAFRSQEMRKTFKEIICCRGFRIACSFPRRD
- TEST_DESCRIPTION: Binding affinity to MC5R
MEASURE_NAME: Ki (µM)
Note: unit µM is implicit; provide only the numeric part.

Ki measured on COc1ccc(CNCC2(N3CCN(C(=O)[C@H]4CN(C(C)C)C[C@@H]4c4ccc(Cl)cc4)CC3)CCCCC2)cc1F = 0.54

====

- EXPERIMENTAL_TARGET: Melanocortin receptor 4 (Homo sapiens, UniProt P32245)
- Sequence (P32245 whole entry): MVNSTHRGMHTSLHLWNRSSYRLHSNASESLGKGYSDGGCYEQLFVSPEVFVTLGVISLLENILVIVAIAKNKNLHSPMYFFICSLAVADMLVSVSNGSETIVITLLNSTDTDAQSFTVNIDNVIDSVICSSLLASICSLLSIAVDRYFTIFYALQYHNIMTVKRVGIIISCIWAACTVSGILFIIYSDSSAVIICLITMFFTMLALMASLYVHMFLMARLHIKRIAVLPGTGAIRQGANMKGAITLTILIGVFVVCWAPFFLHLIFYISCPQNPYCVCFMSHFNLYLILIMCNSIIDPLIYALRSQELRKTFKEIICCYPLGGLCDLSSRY
pKi: −log10 of the molar value.
Assign y to entries whose pKi meets or exceeds 7; assign n to the rest.

Query string: Check this compound for pKi at or above 7: COc1ccc(CNCC2(N3CCN(C(=O)[C@H]4CN(C(C)C)C[C@@H]4c4ccc(Cl)cc4)CC3)CCCCC2)cc1F
Result string: y

Query string: Check this compound for pKi at or above 7: CC(=O)N1C[C@H](C(=O)N2CCN(C3(CNCc4ccncc4)CCCCC3)CC2)[C@@H](c2ccc(Cl)cc2)C1
Result string: n

Query string: Check this compound for pKi at or above 7: CC(C)N1C[C@H](C(=O)N2CCN(C3(CNCc4cccs4)CCCCC3)CC2)[C@@H](c2ccc(Cl)cc2)C1
Result string: y

Query string: Check this compound for pKi at or above 7: O=C([C@H]1CN(C2CCCC2)C[C@@H]1c1ccc(Cl)cc1)N1CCN(C2(CNCc3ccccc3)CCCCC2)CC1
Result string: y

Query string: Check this compound for pKi at or above 7: CC(C)N1C[C@H](C(=O)N2CCN(C3(CNCc4c[nH]cn4)CCCCC3)CC2)[C@@H](c2ccc(Cl)cc2)C1
Result string: n

Query string: Check this compound for pKi at or above 7: COc1ccc(CN(CC(C)C)CC2(N3CCN(C(=O)[C@H]4CN(C(C)C)C[C@@H]4c4ccc(Cl)cc4)CC3)CCCCC2)cc1
Result string: n

Query string: Check this compound for pKi at or above 7: CC(C)N1C[C@H](C(=O)N2CCN(C3(CNCc4cccnc4)CCCCC3)CC2)[C@@H](c2ccc(Cl)cc2)C1
Result string: y

Query string: Check this compound for pKi at or above 7: CCCC(=O)N1C[C@H](C(=O)N2CCN(C3(CNCc4ccccc4)CCCCC3)CC2)[C@@H](c2ccc(Cl)cc2)C1
Result string: n

Query string: Check this compound for pKi at or above 7: CC(C)N1C[C@H](C(=O)N2CCN(C3(CNS(=O)(=O)Cc4ccccc4)CCCCC3)CC2)[C@@H](c2ccc(Cl)cc2)C1
Result string: n

Query string: Check this compound for pKi at or above 7: CC(C)N1C[C@H](C(=O)N2CCN(C3(CN(C)Cc4ccncc4)CCCCC3)CC2)[C@@H](c2ccc(Cl)cc2)C1
Result string: n

Query string: Check this compound for pKi at or above 7: CC(C)N1C[C@H](C(=O)N2CCN(C3(CNCc4ccc([N+](=O)[O-])cc4)CCCCC3)CC2)[C@@H](c2ccc(Cl)cc2)C1
Result string: y

Query string: Check this compound for pKi at or above 7: CC(C)N1C[C@H](C(=O)N2CCN(C3(CNCC4CCCCC4)CCCCC3)CC2)[C@@H](c2ccc(Cl)cc2)C1
Result string: n

Query string: Check this compound for pKi at or above 7: COCC(C)NCC1(N2CCN(C(=O)[C@H]3CN(C(C)C)C[C@@H]3c3ccc(Cl)cc3)CC2)CCCCC1 (stereo not given in full)
Result string: n

Query string: Check this compound for pKi at or above 7: CC(C)N1C[C@H](C(=O)N2CCN(C3(CNCc4ccccc4)CCCCC3)CC2)[C@@H](c2ccc(Cl)cc2)C1
Result string: y

Query string: Check this compound for pKi at or above 7: CC(=O)N1C[C@H](C(=O)N2CCN(C3(CNCc4ccccc4)CCCCC3)CC2)[C@@H](c2ccc(Cl)cc2)C1
Result string: n

Query string: Check this compound for pKi at or above 7: CC(C)N1C[C@H](C(=O)N2CCN(C3(CNCc4cc5ccccc5n4C)CCCCC3)CC2)[C@@H](c2ccc(Cl)cc2)C1
Result string: n

Query string: Check this compound for pKi at or above 7: CC(C)N1C[C@H](C(=O)N2CCN(C3(CNCc4ccccc4Cl)CCCCC3)CC2)[C@@H](c2ccc(Cl)cc2)C1
Result string: y

Query string: Check this compound for pKi at or above 7: O=C([C@H]1CNC[C@@H]1c1ccc(Cl)cc1)N1CCN(C2(CNCc3ccncc3)CCCCC2)CC1
Result string: n

Query string: Check this compound for pKi at or above 7: CC(C)C(N)C(=O)N1C[C@H](C(=O)N2CCN(C3(CNCc4ccccc4)CCCCC3)CC2)[C@@H](c2ccc(Cl)cc2)C1 (stereo not given in full)
Result string: n

Query string: Check this compound for pKi at or above 7: CC(C)N1C[C@H](C(=O)N2CCN(C3(CN)CCCCC3)CC2)[C@@H](c2ccc(Cl)cc2)C1
Result string: n

Query string: Check this compound for pKi at or above 7: CC(=O)N(Cc1ccncc1)CC1(N2CCN(C(=O)[C@H]3CN(C(C)C)C[C@@H]3c3ccc(Cl)cc3)CC2)CCCCC1
Result string: n

Query string: Check this compound for pKi at or above 7: CC(C)N1C[C@H](C(=O)N2CCN(C3(CNC(=O)Cc4ccccc4)CCCCC3)CC2)[C@@H](c2ccc(Cl)cc2)C1
Result string: n

Query string: Check this compound for pKi at or above 7: CC(C)C(=O)N1C[C@H](C(=O)N2CCN(C3(CNCc4ccccc4)CCCCC3)CC2)[C@@H](c2ccc(Cl)cc2)C1
Result string: n

Query string: Check this compound for pKi at or above 7: CC(C)N1C[C@H](C(=O)N2CCN(C3(CNCc4cccc(F)c4)CCCCC3)CC2)[C@@H](c2ccc(Cl)cc2)C1
Result string: y

Query string: Check this compound for pKi at or above 7: CC(C)N1C[C@H](C(=O)N2CCN(C3(CNCc4cncnc4)CCCCC3)CC2)[C@@H](c2ccc(Cl)cc2)C1
Result string: n

====

- EXPERIMENTAL_TARGET: UniProt Q01726
- Sequence (Q01726 whole entry): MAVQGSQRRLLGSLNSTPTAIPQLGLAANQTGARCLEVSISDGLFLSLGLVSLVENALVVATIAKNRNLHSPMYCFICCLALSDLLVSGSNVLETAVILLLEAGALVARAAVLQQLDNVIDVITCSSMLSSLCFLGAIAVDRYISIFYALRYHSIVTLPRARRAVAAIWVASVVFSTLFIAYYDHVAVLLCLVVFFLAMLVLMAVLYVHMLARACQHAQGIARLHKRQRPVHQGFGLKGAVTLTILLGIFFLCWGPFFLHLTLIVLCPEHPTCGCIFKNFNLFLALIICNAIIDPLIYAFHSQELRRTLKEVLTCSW
MEASURE_NAME: pKi
pKi (log units): -log10 of the concentration in mol/L.

pKi measured on COc1ccc(CNCC2(N3CCN(C(=O)[C@H]4CN(C(C)C)C[C@@H]4c4ccc(Cl)cc4)CC3)CCCCC2)cc1F = 5.41

====

- EXPERIMENTAL_TARGET: Melanocortin receptor 4 (Homo sapiens, UniProt P32245)
- TEST_DESCRIPTION: Agonist activity at MC4R assessed as stimulation of cAMP release
# yes = EC50 below 0.8 µM (exclusive); no = EC50 at/above 0.8 µM

Query string: Determine if CC(C)N1C[C@H](C(=O)N2CCN(C3(CNCc4ccc(Cl)cc4)CCCCC3)CC2)[C@@H](c2ccc(Cl)cc2)C1 shows EC50 strictly lower than 0.8 µM.
Result string: no

Query string: Determine if CC(C)N1C[C@H](C(=O)N2CCN(C3(CNCc4ccccc4)CCCCC3)CC2)[C@@H](c2ccc(Cl)cc2)C1 shows EC50 strictly lower than 0.8 µM.
Result string: no

Query string: Determine if COc1ccc(CNCC2(N3CCN(C(=O)[C@H]4CN(C(C)C)C[C@@H]4c4ccc(Cl)cc4)CC3)CCCCC2)c(F)c1 shows EC50 strictly lower than 0.8 µM.
Result string: no

Query string: Determine if COc1ccccc1CNCC1(N2CCN(C(=O)[C@H]3CN(C(C)C)C[C@@H]3c3ccc(Cl)cc3)CC2)CCCCC1 shows EC50 strictly lower than 0.8 µM.
Result string: no

Query string: Determine if CC(C)N1C[C@H](C(=O)N2CCN(C3(CNCc4ccc(N(C)C)cc4)CCCCC3)CC2)[C@@H](c2ccc(Cl)cc2)C1 shows EC50 strictly lower than 0.8 µM.
Result string: no

Query string: Determine if O=C([C@H]1CN(C2CCOCC2)C[C@@H]1c1ccc(Cl)cc1)N1CCN(C2(CNCc3ccccc3)CCCCC2)CC1 shows EC50 strictly lower than 0.8 µM.
Result string: no

Query string: Determine if CC(C)N1C[C@H](C(=O)N2CCN(C3(CNCc4ccccc4Cl)CCCCC3)CC2)[C@@H](c2ccc(Cl)cc2)C1 shows EC50 strictly lower than 0.8 µM.
Result string: no

Query string: Determine if CC(C)N1C[C@H](C(=O)N2CCN(C3(CNCc4ccc(F)cc4F)CCCCC3)CC2)[C@@H](c2ccc(Cl)cc2)C1 shows EC50 strictly lower than 0.8 µM.
Result string: no

Query string: Determine if CC(C)N1C[C@H](C(=O)N2CCN(C3(CNCc4ccsc4)CCCCC3)CC2)[C@@H](c2ccc(Cl)cc2)C1 shows EC50 strictly lower than 0.8 µM.
Result string: no

Query string: Determine if CC(C)N1C[C@H](C(=O)N2CCN(C3(CNCc4ccc(F)cc4)CCCCC3)CC2)[C@@H](c2ccc(Cl)cc2)C1 shows EC50 strictly lower than 0.8 µM.
Result string: no

Query string: Determine if CC(C)N1C[C@H](C(=O)N2CCN(C3(CNCc4cccnc4)CCCCC3)CC2)[C@@H](c2ccc(Cl)cc2)C1 shows EC50 strictly lower than 0.8 µM.
Result string: yes

Query string: Determine if Cc1c(CNCC2(N3CCN(C(=O)[C@H]4CN(C(C)C)C[C@@H]4c4ccc(Cl)cc4)CC3)CCCCC2)cnn1C shows EC50 strictly lower than 0.8 µM.
Result string: yes

Query string: Determine if COc1cccc(CNCC2(N3CCN(C(=O)[C@H]4CN(C(C)C)C[C@@H]4c4ccc(Cl)cc4)CC3)CCCCC2)c1 shows EC50 strictly lower than 0.8 µM.
Result string: no

Query string: Determine if CC(C)N1C[C@H](C(=O)N2CCN(C3(CNCc4cncnc4)CCCCC3)CC2)[C@@H](c2ccc(Cl)cc2)C1 shows EC50 strictly lower than 0.8 µM.
Result string: yes

Query string: Determine if COc1ccc(CNCC2(N3CCN(C(=O)[C@H]4CN(C(C)C)C[C@@H]4c4ccc(Cl)cc4)CC3)CCCCC2)cc1F shows EC50 strictly lower than 0.8 µM.
Result string: yes

Query string: Determine if CC(C)N1C[C@H](C(=O)N2CCN(C3(CNCc4ncc[nH]4)CCCCC3)CC2)[C@@H](c2ccc(Cl)cc2)C1 shows EC50 strictly lower than 0.8 µM.
Result string: yes

Query string: Determine if CC(C)N1C[C@H](C(=O)N2CCN(C3(CNCc4cccs4)CCCCC3)CC2)[C@@H](c2ccc(Cl)cc2)C1 shows EC50 strictly lower than 0.8 µM.
Result string: yes

Query string: Determine if CC(=O)Nc1ccc(CNCC2(N3CCN(C(=O)[C@H]4CN(C(C)C)C[C@@H]4c4ccc(Cl)cc4)CC3)CCCCC2)cc1 shows EC50 strictly lower than 0.8 µM.
Result string: yes

Query string: Determine if CC(C)N1C[C@H](C(=O)N2CCN(C3(CNCc4ccccn4)CCCCC3)CC2)[C@@H](c2ccc(Cl)cc2)C1 shows EC50 strictly lower than 0.8 µM.
Result string: no

Query string: Determine if O=C([C@H]1CN(C2CCCCC2)C[C@@H]1c1ccc(Cl)cc1)N1CCN(C2(CNCc3ccccc3)CCCCC2)CC1 shows EC50 strictly lower than 0.8 µM.
Result string: no

Query string: Determine if CC(C)N1C[C@H](C(=O)N2CCN(C3(CNCc4ccoc4)CCCCC3)CC2)[C@@H](c2ccc(Cl)cc2)C1 shows EC50 strictly lower than 0.8 µM.
Result string: yes

Query string: Determine if CC(C)N1C[C@H](C(=O)N2CCN(C3(CNCc4nccs4)CCCCC3)CC2)[C@@H](c2ccc(Cl)cc2)C1 shows EC50 strictly lower than 0.8 µM.
Result string: yes

Query string: Determine if CC(C)N1C[C@H](C(=O)N2CCN(C3(CNCc4c[nH]cn4)CCCCC3)CC2)[C@@H](c2ccc(Cl)cc2)C1 shows EC50 strictly lower than 0.8 µM.
Result string: yes

Query string: Determine if CC(C)N1C[C@H](C(=O)N2CCN(C3(CNCc4ccco4)CCCCC3)CC2)[C@@H](c2ccc(Cl)cc2)C1 shows EC50 strictly lower than 0.8 µM.
Result string: yes

Query string: Determine if CC(C)N1C[C@H](C(=O)N2CCN(C3(CNCc4ccccc4F)CCCCC3)CC2)[C@@H](c2ccc(Cl)cc2)C1 shows EC50 strictly lower than 0.8 µM.
Result string: yes

Query string: Determine if O=C([C@H]1CN(C2CCCC2)C[C@@H]1c1ccc(Cl)cc1)N1CCN(C2(CNCc3ccccc3)CCCCC2)CC1 shows EC50 strictly lower than 0.8 µM.
Result string: no
